Target: T1, Cyclophilin 40 (human; pDEST14-6H-TEV-hCyp40) (human, UniProt Q08752 1-370)
T1 construct: Cyclophilin 40 (Cyp40, PPID), human; construct pDEST14-6H-TEV-hCyp40; Monomeric by dynamic light scattering; also called PPID; source: E. coli BL21 star (DE3), purified (IMAC, gel filtration on Superdex 200)
T1 sequence (Q08752 whole entry): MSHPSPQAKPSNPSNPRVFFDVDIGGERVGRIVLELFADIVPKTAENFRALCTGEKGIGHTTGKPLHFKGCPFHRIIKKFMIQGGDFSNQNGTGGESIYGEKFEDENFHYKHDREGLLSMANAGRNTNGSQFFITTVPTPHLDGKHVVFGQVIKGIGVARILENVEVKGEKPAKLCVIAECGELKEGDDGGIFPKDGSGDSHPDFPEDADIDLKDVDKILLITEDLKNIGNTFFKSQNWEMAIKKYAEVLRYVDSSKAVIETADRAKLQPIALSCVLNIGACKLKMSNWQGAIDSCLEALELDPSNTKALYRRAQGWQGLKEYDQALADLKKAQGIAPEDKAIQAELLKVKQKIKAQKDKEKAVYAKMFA
Experiment: ITC; 500 uM SRMEEVD titrated into 7.7 uM Cyp40 in 15 x 2.5 ul aliquots; 50 mM Hepes pH 8, 100 mM sodium chloride, 1 mM DTT; 1:1 binding model; 10 °C
Details: both partners purified
Endpoint Name: Kd

get_value(item= SRMEEVD (also called Hsp90 peptide; Hsp90 wt) [SRMEEVD peptide (Hsp90 wild-type C-terminal peptide)] , readout=Kd) returns ~5 µM
